Assign pIC50 to each entry below.
- Test system: U-937
- protocol_summary: Anticancer activity against human U937 cells by MTT assay
- Format: functional, cell-based
Reminder that pIC50 means the negative base-10 logarithm of the concentration expressed in mol/L.

Given item C#CCN(c1nc2ccc(F)cc2s1)c1nc2ccc(OC)cc2s1 , the value recorded as its pIC50 is 4.60

Given item COc1ccc2nc(N(Cc3cc(-c4ccc(SC(F)(F)F)cc4)no3)c3nc4ccc(F)cc4s3)sc2c1 , the value recorded as its pIC50 is 4.37

Given item COc1ccc(-c2cc(CN(c3nc4ccc(F)cc4s3)c3nc4ccc(OC)cc4s3)on2)cc1 , the value recorded as its pIC50 is 3.86

Given item FC(F)(F)Sc1ccc(-c2cc(CN(c3ncccn3)c3nc4ccccc4s3)on2)cc1 , the value recorded as its pIC50 is 4.71

Given item FC(F)(F)Oc1ccc(-c2cc(CN(c3ncccn3)c3nc4ccccc4s3)on2)cc1 , the value recorded as its pIC50 is 4.87

Given item COc1ccc2nc(N(Cc3cc(-c4ccc(OC(F)(F)F)cc4)no3)c3nc4ccc(F)cc4s3)sc2c1 , the value recorded as its pIC50 is 4.64

Given item COc1cc(-c2cc(CN(c3ncccn3)c3nc4ccccc4s3)on2)cc(OC)c1OC , the value recorded as its pIC50 is 4.58

Given item C#CCN(c1ncccn1)c1nc2ccccc2s1 , the value recorded as its pIC50 is 4.80

Given item COc1ccc2nc(N(Cc3cc(-c4ccc(Br)cc4)no3)c3nc4ccc(F)cc4s3)sc2c1 , the value recorded as its pIC50 is 4.46

Given item COc1ccc2nc(N(Cc3cc(-c4ccccc4F)no3)c3nc4ccc(F)cc4s3)sc2c1 , the value recorded as its pIC50 is 4.53

Given item Brc1ccc(-c2cc(CN(c3ncccn3)c3nc4ccccc4s3)on2)cc1 , the value recorded as its pIC50 is 4.87

Given item Fc1ccccc1-c1cc(CN(c2ncccn2)c2nc3ccccc3s2)on1 , the value recorded as its pIC50 is 4.56

Given item COc1cc([C@@H]2c3cc4c(cc3[C@@H](O[C@@H]3O[C@@H]5CO[C@@H](C)O[C@H]5[C@H](O)[C@H]3O)[C@H]3COC(=O)[C@H]23)OCO4)cc(OC)c1O [ETOPOSIDE] , the value recorded as its pIC50 is 5.00

Given item COc1ccc(-c2cc(CN(c3ncccn3)c3nc4ccccc4s3)on2)cc1 , the value recorded as its pIC50 is 4.86

Given item COc1ccc2nc(N(Cc3cc(-c4cc(OC)c(OC)c(OC)c4)no3)c3nc4ccc(F)cc4s3)sc2c1 , the value recorded as its pIC50 is 4.36
